- method-notes: qHTS assay to identify small molecule agonists of the constitutive androstane receptor (CAR) signaling pathway - cell viability counter screen (AID 1224836); further: nearly all actives have a fitted effect of over 45% in size
- condition-details: HepG2-CYP2B6-hCAR viability, CellTiter-Fluor, 23 h, PK11195 added to every well; series mostly up to 92.4 µM
Results filed as inconclusive are left out. The source made the active and inactive calls. The call rests on the fitted dose curve; in most records, active means well fitted cell-killing curve with a large enough effect in the repeat runs; inconclusive means weak or mixed curves, or effect the other way; inactive means flat fitted curve, though single readings scatter.
Hi there, use one of these labels in your reply, thanks! Y = active, N = inactive

These recorded examples may help you get a feel for the data.
compound: CCCOC(=O)c1ccc(C(=O)OCCC)nc1
class-name: N

compound: CCCCCCCCCCCCCCC[C@H](O)[C@@H](N)CO
class-name: N

compound: CCOC(=O)N1CCC(n2c(=O)[nH]c3cc(Cl)ccc32)CC1
class-name: N

compound: Cc1cc2nc3ccc(=[N+](C)C)cc-3sc2cc1N
class-name: Y

compound: O=C(O)C(Cc1cc(I)c(O)c(I)c1)c1ccccc1 (stereo not given)
class-name: N

Problem: Recorded test call requested for Cc1cc(O)c(C(C)C)cc1Cl
Result: N

Problem: Recorded test call requested for Cc1ccc(S)cc1
Result: N

Problem: Recorded test call requested for O=C(CS)OCCOC(=O)CS
Result: N

Problem: Recorded test call requested for C=CCNc1nc(NCC=C)nc(N2CCN(C(c3ccc(F)cc3)c3ccc(F)cc3)CC2)n1
Result: N

Problem: Recorded test call requested for CCCCC(CC)C(=O)OCCOCCOCCOCCOC(=O)C(CC)CCCC (stereo not given)
Result: N

Problem: Recorded test call requested for Cc1oncc1C(=O)Nc1ccc(C(F)(F)F)cc1
Result: N

----------
- Test system: estrogen-related receptor alpha (ERRalpha) with PGC-1alpha coactivator, human
- method-notes: qHTS assay to identify small molecule antagonists of the estrogen related receptor signaling pathway with the pleiotropic PPARgamma coactivator (PGC) (AID 1224821); further: nearly all actives have a fitted effect of over 50% in size
- condition-details: ERR/PGC reporter cell line, luciferase, antagonist mode; series mostly up to 46.1 µM
Records with an inconclusive call do not appear. Calls of active or inactive are those of the source. Calls come from the whole dose curve.
Hi there, use one of these labels in your reply, thanks! active, inactive

These recorded examples may help you get a feel for the data.
compound: COCCOC(=O)C1=C(C)NC(C)=C(C(=O)OC/C=C/c2ccccc2)C1c1cccc([N+](=O)[O-])c1 (stereo not given)
target-under-test: estrogen-related receptor alpha (ERRalpha) with PGC-1alpha coactivator, human
class-name: active

compound: CNCCCC1c2ccccc2C=Cc2ccccc21
target-under-test: estrogen-related receptor alpha (ERRalpha) with PGC-1alpha coactivator, human
class-name: inactive

compound: COC(=O)Nc1nc2ccc(C(=O)c3cccs3)cc2[nH]1
target-under-test: estrogen-related receptor alpha (ERRalpha) with PGC-1alpha coactivator, human
class-name: inactive

compound: CCCc1c(OCCCOc2ccc(OCC(=O)O)cc2)ccc(C(C)=O)c1O
target-under-test: estrogen-related receptor alpha (ERRalpha) with PGC-1alpha coactivator, human
class-name: inactive

Problem: Recorded test call requested for COc1cc2c(cc1OC)-c1cc(=Nc3c(C)cc(C)cc3C)n(C)c(=O)n1CC2
Result: inactive

----------
- method-notes: qHTS assay to identify small molecule agonists of the estrogen related receptor (ERR) signaling pathway from Tox21 library (AID 1224849); further: on the % scale 0 is the no-effect control and ±100 the full control effect; nearly all actives have a fitted effect of over 15% in size
- condition-details: ERR reporter cell line, ONE-Glo luciferase, 18 h; at 92.4 µM (top of the series) unless noted
- Protocol: National Center for Advancing Translational Sciences [NCATS] NIH Chemical Genomics Center [NCGC] U.S. Environmental Protection Agency [EPA] National Institutes of Environmental Health Sciences [NIEHS] National Toxicology Program [NTP] […] The ERR cells were dispensed at 2,000 cells/5 ul/well in 1536-well white plates using a Multidrop dispenser. […] After 30-minute incubation at room temperature, the luminescence intensity in the plates was measured using a ViewLux plate reader.
The source made the active and inactive calls. Calls follow the shape of the full dose curve.
So I've got a bunch of compounds here, and I need their activity change, positive = activation values.

For orientation, consider the following solved cases.
compound: CCCCC1C(=O)N(c2ccccc2)N(c2ccc(O)cc2)C1=O (stereo unspecified)
activity change, positive = activation: -65.4% [at 42.5 µM] (inactive)
--
compound: Cc1nc2ccccn2c(=O)c1CCN1CCC(C(=O)c2ccc(F)cc2)CC1
activity change, positive = activation: -25.4% [at 42.5 µM] (inactive)

Would you mind listing activity change, positive = activation for each of the following compounds?
1. CC(C)CCCC(=O)O
2. COc1cc2[nH]c(=O)[nH]c(=O)c2cc1OC
3. CC1=CC(=O)CC(C)(C)C1(O)/C=C/C(C)=C\C(=O)O (stereo unspecified)
4. c1cc[c]([Bi]([c]2ccccc2)[c]2ccccc2)cc1

Result:
1: 0.997% (inactive); 2: 2.16% [at 42.5 µM] (inactive); 3: 4.36% (inactive); 4: -40.9% (inactive)
